Attribution: PubChem BioAssay (NCI)

# Tested on: HCT-15 colon
# protocol-details: NCI-60 one-dose screen, 48 h
# run-parameters: 10 µM unless noted
Compounds without any hit were thinned out: in the full panel of roughly 83,000, 20% have a hit. The source made the active and inactive calls. How the source made its calls: active means growth percent below 10; inactive means the rest.
Valid outcomes are listed here; reply with one: active, inactive

Q: Short answer needed: outcome of this test for "CC(C)(C)n1cc(-c2ccnc(NCCCNS(=O)(=O)c3cccc(F)c3)n2)c(-c2ccc(Cl)c(O)c2)n1" ?
A: inactive

Q: Short answer needed: outcome of this test for "COc1ccc(/C(N)=N/C(N)=N/c2nc3ccccc3s2)cc1" ?
A: inactive

Q: Short answer needed: outcome of this test for Cc1ccc(NC(=O)N[C@@H](Cc2cc(F)cc(F)c2)C(=O)NC2C(=O)N3C[C@H](O)C[C@H]3C(=O)N3CCCC[C@H]3C(=O)N[C@@H](CO)C(=O)N3C[C@H](C)C[C@H]3C(=O)O[C@H]2C)c(F)c1 (stereo partly drawn) ?
A: inactive

Q: Short answer needed: outcome of this test for "COc1ccc([C@H]2[C@H](O)C(=O)N2c2cc(OC)c(OC)c(OC)c2)cc1F" ?
A: active

Q: Short answer needed: outcome of this test for "c1cn2c(ccc3nc(-c4cn[nH]c4)c4c(c32)CCCC4)n1" ?
A: inactive

Q: Short answer needed: outcome of this test for "CNC(=O)c1cc(-n2ccc3cc(NC(=O)Nc4ccc(N5CCOCC5)c(C(F)(F)F)c4)ccc32)ccn1" ?
A: inactive

Q: Short answer needed: outcome of this test for "NS(=O)(=O)c1ccc(Nc2nc(N/N=C/CCc3ccccc3)nc(Nc3ccccc3)n2)cc1" ?
A: inactive

Q: Short answer needed: outcome of this test for "CC1(COc2ccc3ncc(C#Cc4cncc(C(=O)Nc5cccc(C(F)(F)F)c5)c4)n3n2)COC1" ?
A: inactive

* * *

# System: SN12C renal
# protocol-details: NCI-60 one-dose screen, 48 h
# run-parameters: 10 µM unless noted
This is part of a sample that, as a whole, favours compounds with a hit. Of some 83,000 tested, about 20% had one in any assay. Calls of active or inactive are those of the source. Rule for the calls: active = growth percent below 10; inactive = the rest.
Valid outcomes are listed here; reply with one: yes (1) for active, no (0) for inactive

Q: Short answer needed: outcome of this test for "Cc1nn(-c2ccccc2)c2ncnc(N/N=C/c3ccccc3O)c12" ?
A: yes (1)

Q: Short answer needed: outcome of this test for CC(c1ccccc1)N1CSc2nc3ncncc3n2C1 (stereo unspecified) ?
A: no (0)

Q: Short answer needed: outcome of this test for C[C@@H]1C[C@H]2C(=O)O[C@@H](C)C(NC(=O)[C@H](Cc3cc(F)cc(F)c3)NC(=O)Nc3ccc(C4CC4)cc3F)C(=O)N3CCC[C@H]3C(=O)N3CCCC[C@H]3C(=O)N[C@@H](CO)C(=O)N2C1 (stereo partly specified) ?
A: no (0)

Q: Short answer needed: outcome of this test for "O=C1[C@H]2Cc3c([nH]c4ccccc34)[C@@H](c3c(Cl)cccc3Cl)N2C(=O)CN1C1CCN(CC2CCCCC2)CC1" ?
A: no (0)

Q: Short answer needed: outcome of this test for "NC(N)=Nc1ccc(Oc2cccc(NC(N)=Nc3ccc(Br)cc3)c2)cn1" ?
A: no (0)

Q: Short answer needed: outcome of this test for CCCn1cnc2c(c1=N)C(c1ccc(Cl)cc1)c1sc3c(CC)cccc3c1O2 (stereo unspecified) ?
A: no (0)

Q: Short answer needed: outcome of this test for "COc1ccc(/C=C(\C#N)C(=O)N2c3ccccc3Sc3ccc(SC)cc32)cc1F" ?
A: no (0)

Q: Short answer needed: outcome of this test for "CC[C@@H](CO)Nc1ccc2ncc(C#Cc3cncc(C(=O)Nc4ccc(CN5CCN(C)CC5)c(C(F)(F)F)c4)c3)n2n1" ?
A: yes (1)

Q: Short answer needed: outcome of this test for "O=C(Cn1c(-c2ccccc2)nc2cc(Cl)c(Cl)cc21)N=Nc1c(O)[nH]c2ccc(Cl)cc12" ?
A: no (0)

Q: Short answer needed: outcome of this test for CCCn1cnc2c(c1=N)C(c1ccc(F)cc1)c1sc3c(CC)cccc3c1O2 (stereo unspecified) ?
A: no (0)

Q: Short answer needed: outcome of this test for "COc1ccc(Cn2cc3c(c2-c2cc(OC)c(OC)c(OC)c2)CCc2c(CN4CCOCC4)noc2-3)cc1" ?
A: no (0)

Q: Short answer needed: outcome of this test for "O=C(CSc1nc2ccccc2c(=O)n1-c1ccc(Cl)cc1)N/N=C/c1ccc(N2CCCCC2)cc1" ?
A: no (0)

Q: Short answer needed: outcome of this test for "COCCNc1ccc2ncc(C#Cc3cncc(C(=O)Nc4ccc(CN5CCN(C)CC5)c(C(F)(F)F)c4)c3)n2n1" ?
A: yes (1)

Q: Short answer needed: outcome of this test for "Nc1cc(-c2c[nH]c3ccc(Br)cc23)nc2cc(-c3c[nH]c4ccc(Br)cc34)nn12" ?
A: no (0)

Q: Short answer needed: outcome of this test for "C[C@H]1c2[nH]c3ccccc3c2C[C@H]2C(=O)N(CCCCCCC(=O)NO)CC(=O)N21" ?
A: no (0)

Q: Short answer needed: outcome of this test for COc1c(N2CC3CCCNC3C2)c(F)cc2c(=O)c(C(=O)N/N=C/c3ccc4c(c3)OCO4)cn(C3CC3)c12 (stereo unspecified) ?
A: no (0)

Q: Short answer needed: outcome of this test for "CC(=O)c1ccc(Nc2nc(SCC(C)C)nc(-c3ccc(F)cc3)c2C#N)cc1" ?
A: no (0)

Q: Short answer needed: outcome of this test for "O=C(Nc1cccc(C(F)(F)F)c1)c1cc(-c2ccc(F)cc2F)ccc1O" ?
A: yes (1)

Q: Short answer needed: outcome of this test for CCc1cccc2c3c(sc12)C(c1ccc(OC)cc1)C(C#N)=C(/N=C/c1ccc(Cl)cc1)O3 (stereo unspecified) ?
A: no (0)

Q: Short answer needed: outcome of this test for "Cc1ccc(C2=NN(C)C(=O)C3(CCCC3)C2)cc1" ?
A: no (0)

Q: Short answer needed: outcome of this test for "CC1(C)CC[C@]2(C(=O)O)CC[C@]3(C)C(=CC[C@@H]4[C@@]5(C)CC/C(=N\OCCC#N)C(C)(C)[C@@H]5CC[C@]43C)[C@@H]2C1" ?
A: no (0)

Q: Short answer needed: outcome of this test for "COc1cc2oc(-c3cccc(C(=O)N[C@@H](CC(C)C)C(=O)OC(C)(C)C)c3)cc(=O)c2c(OC)c1OC" ?
A: no (0)

Q: Short answer needed: outcome of this test for "C[C@H](CCC(=O)NCc1ccc(C(=O)Nc2ccccc2N)cc1)[C@H]1CC[C@H]2[C@@H]3[C@@H](O)C[C@@H]4C[C@H](O)CC[C@]4(C)[C@H]3CC[C@]12C" ?
A: no (0)

Q: Short answer needed: outcome of this test for "Clc1nc2ccccc2nc1-c1nnc(C2CCCCC2)o1" ?
A: no (0)

Q: Short answer needed: outcome of this test for "COc1ccc(Oc2ccc(/C=N/NC(=O)CSc3nc4ccccc4c(=O)n3-c3ccc(Cl)cc3)cc2)cc1" ?
A: no (0)

Q: Short answer needed: outcome of this test for "CN1CCN(Cc2ccc(NC(=O)c3cncc(C#Cc4cnn5cccnc45)c3)cc2C(F)(F)F)CC1" ?
A: yes (1)

Q: Short answer needed: outcome of this test for "CC(=O)c1cc(C(=O)c2ccc(Br)cc2)n2cc(C)cc(C)c12" ?
A: no (0)

Q: Short answer needed: outcome of this test for "Nn1c(N/N=C/c2nc3ccccc3s2)n[nH]c1=S" ?
A: no (0)

Q: Short answer needed: outcome of this test for COC(=O)c1[nH]nc2c1C1(C(=O)c3cccc4cccc1c34)C(C#N)=C(N)O2 (stereo unspecified) ?
A: no (0)

Q: Short answer needed: outcome of this test for "C#CCC#CCN1CCC[C@H]1C(=O)NCC(=O)OC" ?
A: no (0)

Q: Short answer needed: outcome of this test for C=C1CC[C@@H]2[C@]3(C)COC(c4ccccc4)O[C@@H]3CC[C@@]2(C)[C@@H]1C/C=C1/C(=O)OC[C@H]1O (stereo partly specified) ?
A: no (0)

Q: Short answer needed: outcome of this test for "Cc1cc2nc(C(Cl)Cl)nc(-c3cccs3)n2n1" ?
A: no (0)

Q: Short answer needed: outcome of this test for "CCOC(=O)c1c(Nc2ccccc2)nn2c(-c3ccccc3)ccnc12" ?
A: no (0)

Q: Short answer needed: outcome of this test for "N#C/C(=C\c1ccc(-c2ccc(Cl)cc2Cl)o1)c1ccc(F)cc1" ?
A: no (0)

Q: Short answer needed: outcome of this test for "NC(N)=Nc1ccc(Oc2cccc(NC(N)=Nc3ccc(Br)c(C(F)(F)F)c3)c2)cc1" ?
A: no (0)

Q: Short answer needed: outcome of this test for "Cc1occc1-c1nc2s/c(=C/c3ccc(-c4cc(C(F)(F)F)ccc4Cl)o3)c(=O)n2n1" ?
A: no (0)

* * *

# Tested on: SR leukemia
# protocol-details: NCI-60 one-dose screen, 48 h (100 = growth as untreated, 0 = no growth, -100 = all killed)
# run-parameters: 10 µM unless noted
# Protocol: Growth inhibition of the SR human tumor cell line is measured as a screen for anti-cancer activity. Cells are grown in 96 well plates and exposed to the test compound for 48 hours. Compounds are tested at a single concentration, which is 10^-5 M for most compounds. The reported endpoint is percent growth (GI% or GIPRCNT), where numbers from 0 - 100% represent growth inhibition, and numbers from -100% - 0 represent cell death. For example, a value of 40 represents 60% growth inhibition. […]
This is part of a sample that, as a whole, favours compounds with a hit. Of some 83,000 tested, about 20% had one in any assay.
So I've got a bunch of compounds here, and I need their growth values.
Express your answer in %, writing the number without its unit.

Q: growth for "COc1cc(Cn2cc3c(c2)-c2onc(CN4CCOCC4)c2CC3)cc(OC)c1OC" ?
A: 114

Q: growth for "O=C(CSc1nc2ccccc2c(=O)n1-c1ccccc1)Nc1cccc(C(=O)/C=C/c2ccccc2Cl)c1" ?
A: 89.2

Q: growth for "CN(C)CCNC(=O)c1ccc(-c2nc3ccc4[nH]ncc4c3c3c2COCC3)cc1" ?
A: -25.1

Q: growth for "CS(=O)(=O)Nc1cc(-c2ccc3ncc(C#N)c(NCc4cccc(F)c4)c3c2)cnc1Cl" ?
A: 2.9

Q: growth for "CN1CCC(n2cc(Nc3ncc4c(=O)n(-c5c(Cl)cccc5Cl)cc(Br)c4n3)cn2)CC1" ?
A: -21.4
